Cited source for all entries: patent US20260008793A1

procedure-details: LNP size, PDI and zeta potential by Dynamic Light Scattering (Method A)
Format: physicochemical
condition-context: LNP formulated by Method A, DLS
property-name: PDI
Give bare numbers.

Some solved cases for reference:
I have this molecule here, CCCCCCCCOC(CCCCCN(CCCCO)CCCCCCOC(=O)C(CCCCCC)CCCCCCCC)O[Si](C)(C)OCCCCCCCC (centres unmarked) [Example 130] , and I need its recorded PDI.
0.418

What value of measured PDI is listed for CCCCCCCCC(CCCCCC)C(=O)OCCCCCCN(CCCCO)CCCCCCOC(CCCCCCC)O[Si](C)(C)O[Si](C)(C)CCCCCCCC (centres unmarked) [Example 133] ?
0.039

// PDI lookup, key: CCCCCCCCC(SCCCCC)C(=O)OCCCCCCN(CCCCO)CCCCCCOC(CCCCCCC)O[Si](C)(C)O[Si](C)(C)CCCCCCCC (centres unmarked) [Example 182]
0.045

Requested field: PDI. Item: CCCCCCCCOC(CCCCCC)O[Si](C)(C)OCCCCCCN(CCCCO)CCCCCCOC(=O)C(CCCCCC)CCCCCCCC (centres unmarked) [Example 142]
0.06

Dear colleague, I am looking for the recorded PDI of the following molecule: CCCCCCCCOC(CCCCCN(CCCCO)CCCCCCOC(=O)C(CCCCCC)CCCCCCCC)O[Si](C)(C)CCCCCCCC (centres unmarked) [Example 128]
0.107

What PDI value was documented for this molecule, CCCCCCCCCCSC(CCCC)C(=O)OCCCCCCN(CCCCO)CCCCCC(OCCCCCCCC)O[Si](C)(C)O[Si](C)(C)OCCCCCCCC (centres unmarked) [Example 172] ?
0.07

Could you tell me which PDI is on file for CCCCCCCCOC(CCCCCN(CCCCO)CCCCCCOC(=O)C(CCCCCCCC)SCCCCC)O[Si](C)(C)OCCCCCCCC (centres unmarked) [Example 179] ?
0.038

# context switch: different molecule, same PDI
Dear colleague, I am looking for the recorded PDI of the following molecule: CCCCCCCCOC(CCCCCN(CCCCCC(OCCCCCCCC)O[Si](C)(C)CCCCCCCC)CCC1CCCN1C)O[Si](C)(C)CCCCCCCC (centres unmarked) [Example 116]
0.092

###

procedure-details: Encapsulation efficiency, RiboGreen RNA assay (Method A)
Assay type: physicochemical
condition-context: LNP formulated by Method A
So I've got a bunch of molecules here, and I need their EE (%) values.
Reply with the number, then its unit.

Take a look at these entries with their results.
Can you share its EE (%)? I mean this molecule: CC/C=C\C/C=C\C/C=C\C/C=C\C/C=C\CCCCN(CCCCO)CCCCCCO[Si](C)(C)OC(CCCCCCC)OCCCCCCCC (stereo not drawn)
97%

Look at this molecule and give its reported EE (%). CCCCCCCCCC(OCCCCCC)O[Si](C)(C)OCCCCCCN(CCCCO)CCCCCCOC(=O)C(CCCCCC)CCCCCCCC (stereo not drawn)
97%

Entry CCCCCCCCO[Si](C)(C)O[Si](C)(C)OC(CCCCCCC)OCCCCCCN(CCCCO)CCCCCCOC(=O)C(CCCCCC)CCCCCCCC (stereo not drawn) has what EE (%)?
91%

# lookup: EE (%) of CCCCCCCCCCCOC(=O)CCCCCN(CCO)CCCCCCCCCC(OCCCCCCCC)O[Si](C)(C)CCCCCC (stereo not drawn)
99%

Which EE (%) value is on record for CCCCCCCCOC(CCCCCN(CCCCO)CCCCCCOC(=O)C(CCCCCCCC)SCCCCC)O[Si](C)(C)O[Si](C)(C)CCCCCCCC (stereo not drawn) ?
97%

Name the recorded EE (%) for CCCCCCCCCCSC(CCCC)C(=O)OCCCCCCN(CCCCO)CCCCCCO[Si](C)(C)OC(CCCCCCC)OCCCCCCCC (stereo not drawn) .
95%

Hello, I would appreciate it if you could give EE (%) for each entry below.
1. CCCCCCCCCCSC(CCCC)C(=O)OCCCCCCN(CCCCO)CCCCCCOC(CCCCCCC)O[Si](C)(C)OCCCCCCCC (stereo not drawn)
2. CC/C=C\C/C=C\C/C=C\C/C=C\C/C=C\CCCCN(CCCCO)CCCCCCOC(CCCCCCC)O[Si](C)(C)O[Si](C)(C)OCCCCCCCC (stereo not drawn)
3. CCCCCCCCC(SCCCCC)C(=O)OCCCCCCN(CCCCO)CCCCCCOC(CCCCCCC)O[Si](C)(C)CCCCCCCC (stereo not drawn)

["95%", "95%", "96%"]

Batch: EE (%) for all items listed.
1. CCCCCCCCOC(CCCCCN(CCCCO)CCCCCCOC(=O)C(CCCCCC)CCCCCCCC)O[Si](C)(C)CCCCCCCC (stereo not drawn)
2. CCCCCCCCOC(CCCCCN(CCCCO)CCCCCCOC(=O)C(CCCCCCCC)SCCCCC)O[Si](C)(C)OCC(CCCCCC)CCCCCCCC (stereo not drawn)
3. CCCCCCCCOC(CCCCCCC)O[Si](C)(C)OCCCCCN(CCCCO)CCCCCCOC(=O)C(CCCCCC)CCCCCCCC (stereo not drawn)
4. CC/C=C\C/C=C\C/C=C\C/C=C\C/C=C\CCCCN(CCCCO)CCCCCC(OCCCCCCCC)O[Si](C)(C)OCC(CCCCCC)CCCCCCCC (stereo not drawn)

["97%", "97%", "97%", "96%"]

###

procedure-details: LNP size, PDI and zeta potential by Dynamic Light Scattering (Method A)
Assay type: physicochemical
condition-context: LNP formulated by Method A, 1xPBS pH 7.4
property-name: Zeta potential (mV)
Answers are plain numbers, in mV.

Consider the worked cases shown below.
Returns the measured Zeta potential (mV) for the input compound. Input: CC/C=C\C/C=C\C/C=C\C/C=C\C/C=C\CCCCN(CCCCO)CCCCCCOC(CCCCCCC)O[Si](C)(C)O[Si](C)(C)OCCCCCCCC (stereo not shown)
−13.1

Reported Zeta potential (mV), compound CCCCCCCCOC(CCCCCCC)O[Si](C)(C)CCCCCCN(CCCCO)CCCCCCOC(=O)C(CCCCCC)CCCCCCCC (stereo not shown) : ____
−16.19

Query (compound): CCCCCCCCO[Si](C)(C)OC(CCCCCCC)OCCCCCCN(CCCCCCOC(CCCCCCC)O[Si](C)(C)OCCCCCCCC)CCC1CCCN1C (stereo not shown) ; field requested: Zeta potential (mV)
−11.47

Endpoint output: Zeta potential (mV) of CCCCCCCCOC(CCCCCN(CCCCO)CCCCCCOC(=O)C(CCCCCC)CCCCCCCC)O[Si](C)(C)O[Si](C)(C)OCCCCCCCC (stereo not shown) . Value?
−11.99

What does the record list as Zeta potential (mV) for CCCCCCCCOC(CCCCCCC)O[Si](C)(C)CCCCCCN(CCCCO)CCCCCCOC(=O)C(CCCCCCCC)SCCCCC (stereo not shown) ?
−14.47

State the recorded Zeta potential (mV) for this entry: CCCCCCCCOC(CCCCCC)O[Si](C)(C)OCCCCCCN(CCCCO)CCCCCCOC(=O)C(CCCCCC)CCCCCCCC (stereo not shown)
−12.8

Dear colleague, could you please provide Zeta potential (mV) for the compounds listed below?
1. CCCCCCCCO[Si](C)(C)OC(CCCCCCC)OCCCCCCN(CCCCO)CCCCCCOC(=O)C(CCCCCC)CCCCCCCC (stereo not shown)
2. CCCCCCCCC(SCCCCC)C(=O)OCCCCCCN(CCCCO)CCCCCCOC(CCCCCCC)O[Si](C)(C)CCCCCCCC (stereo not shown)
3. CCCCCCCCCOC(CCCCCCC)O[Si](C)(C)OCCCCCCN(CCCCO)CCCCCCOC(=O)C(CCCCCC)CCCCCCCC (stereo not shown)
4. CCCCCCCCOC(CCCCCCC)O[Si](C)(C)CCCCCCN(CCCCO)CCC[C@@H](C)C1CCC2C3CCC4C[C@H](OC)CC[C@]4(C)C3CC[C@@]21C (stereo partly shown)
5. CCCCCCCCCCOC(CCCCC)O[Si](C)(C)OCCCCCCN(CCCCO)CCCCCCOC(=O)C(CCCCCC)CCCCCCCC (stereo not shown)
6. CCCCCCCCOC(CCCCCN(CCO)CCCCCCCC(=O)OC(CCCCCCCC)CCCCCCCC)O[Si](C)(C)O[Si](C)(C)OCCCCCCCC (stereo not shown)
7. CCCCCCCCOC(CCCCCN(CCCCO)CCC[C@@H](C)C1CCC2C3CCC4C[C@H](OC)CC[C@]4(C)C3CC[C@@]21C)O[Si](C)(C)O[Si](C)(C)CCCCCCCC (stereo partly shown)

["−16.95", "−13.00", "−10.6", "−16.58", "−7.7", "−12.28", "−12.88"]

###

Kindly supply the reported EE (%) values for the records listed here.
procedure-details: Encapsulation efficiency, RiboGreen RNA assay (Method A)
Format: physicochemical
condition-context: LNP formulated by Method A

Reference set, count: 4
Would you kindly share the measured EE (%) for CCCCCCCCCCSC(CCCC)C(=O)OCCCCCCN(CCCCO)CCCCCC(OCCCCCCCC)O[Si](C)(C)CCCCCCCC (centres unmarked) ?
94%

Given CCCCCCCCOC(CCCCCN(CCCCO)CCCCCCOC(=O)C(CCCCCCCC)SCCCCC)O[Si](C)(C)CCCCCCCC (centres unmarked) , state its recorded EE (%).
98%

Record request: EE (%) value, item CCCCCCCCOC(CCCCCN(CCCCO)CCCCCC(OCCCCCCCC)O[Si](C)(C)O[Si](C)(C)CCCCCCCC)O[Si](C)(C)O[Si](C)(C)CCCCCCCC (centres unmarked)
96%

Please report the recorded EE (%) for CCCCCCCCOC(CCCCCCC)O[Si](C)(C)OCCCCCCN(CCCCO)CCCCCCOC(=O)C(CCCCCCCC)SCCCCC (centres unmarked) .
98%

Shifting focus to the compound that follows.
If you can, please state the reported EE (%) value of CCCCCCCCOC(CCCCCN(CCCCCC(OCCCCCCCC)O[Si](C)(C)O[Si](C)(C)CCCCCCCC)CCC1CCCN1C)O[Si](C)(C)O[Si](C)(C)CCCCCCCC (centres unmarked) .
98%
